Assay: chemical genetic growth profiling, strain panel (AID 1159580);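 also: tested at 20 µM; growth read once vehicle control cultures reached saturation at 30 °C; 1 = growth at the plate median or of vehicle wells; lower values mean less growth of the strain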
Settings: S. cerevisiae deletion strains, growth OD, locus YJL168C, strain set2, hits give low values
The campaign covered roughly 5,500 compounds. About 2,000 (36%) were called active. Not shown: some 18% with an inconclusive outcome. This is one part of the list.
property: normalized growth
API note: the answer field is a bare number with no unit suffix.

Exam item: Requested field: normalized growth. Item: CC(=O)Nc1ccc(S(=O)(=O)Nc2ccc([N+](=O)[O-])cc2)cc1
Marked response: 0.989

Exam item: For the compound COc1ccccc1OCCNCC(O)COc1cccc2[nH]c3ccccc3c12 (stereo not drawn) , what normalized growth is on record?
Marked response: 1.01

Exam item: Which normalized growth value belongs to O=C(O)CCCCC1CCSS1 (stereo not drawn) ?
Marked response: 0.992

Exam item: Please report the recorded normalized growth for O=C(O)c1ccccc1Nc1cccc(C(F)(F)F)c1 .
Marked response: 0.99

Exam item: Which normalized growth value is on record for C[n+]1cccc(C(=O)[O-])c1 ?
Marked response: 0.999

Exam item: Quick one: normalized growth of Nc1ncn([C@@H]2O[C@H](CO)[C@@H](O)[C@H]2O)c(=O)n1 ?
Marked response: 0.995

Exam item: Quick one: normalized growth of CC(=O)O[C@@H]1CC2C(C)(C)C(=O)CC[C@]2(C)C2CC[C@]3(C)C(=CC(=O)O[C@H]3c3ccoc3)[C@@]21C (stereo partly drawn) ?
Marked response: 0.988

Exam item: Quick one: normalized growth for CC(C)N(C(=O)SCC(Cl)=C(Cl)Cl)C(C)C ?
Marked response: 1
